- System: K. pneumoniae 1228586
- Format: cell-based, Klebsiella pneumoniae
- protocol_conditions: 1228586, 20 h
- Method: All minimum inhibitory concentrations (MICs) were determined according to the Clinical and Standards Laboratory Institute (CLSI) guidelines. In brief, agar plates were inoculated from glycerol stocks and incubated overnight at 35 °C. Peptide DMSO stocks were dispensed into 96-well round-bottom plates using a TECAN D300e dispenser. […] Images of all plates were recorded, and MIC was assessed visually.
Where a SMILES comes first, the peptide text is derived from it. [ ]: non-standard residue; d: D form. The star is where a group is joined. d(aIle) = CC[C@H](C)[C@@H](N)C(=O)O; dDab = NCC[C@@H](N)C(=O)O; Octanoyl = CCCCCCCC(=O)*; Dab = NCC[C@H](N)C(=O)O
I'd be grateful if you could share measured MIC for these entries.
Provide only the numeric value, understood in µg/mL.

Enquiry: // lookup MIC for CCCCCCCC(=O)N[C@@H](C(=O)N[C@H](CCN)C(=O)NCC(=O)N[C@H](CO)C(=O)N[C@H](Cc1c[nH]c2ccccc12)C(=O)N[C@@H](CO)C(=O)N[C@@H](CCN)C(=O)N[C@H](CCN)C(=O)N[C@H](C(=O)N[C@@H](CCC(=O)O)C(=O)N[C@H](C(=O)N[C@@H](C(=O)N[C@@H](C)C(=O)O)[C@@H](C)CC)C(C)C)C(C)C)C(C)C [Oct-Val9] (Octanoyl-[dV][dDab]G[dS][dW]S[Dab][dDab]VEV[d(aIle)]A-OH)
Return: 8

Enquiry: Likewise for CCCCCCCC(=O)N[C@@H](C(=O)N[C@H](CCN)C(=O)NCC(=O)N[C@H](CO)C(=O)N[C@H](Cc1c[nH]c2ccccc12)C(=O)N[C@@H](CO)C(=O)N[C@@H](CCN)C(=O)N[C@H](CCN)C(=O)NCC(=O)N[C@@H](CCC(=O)O)C(=O)N[C@H](C(=O)N[C@@H](C(=O)N[C@@H](C)C(=O)O)[C@@H](C)CC)C(C)C)C(C)C [Oct-Gly9] (Octanoyl-[dV][dDab]G[dS][dW]S[Dab][dDab]GEV[d(aIle)]A-OH) ?
Return: 8

Enquiry: Likewise for CCCCCCCC(=O)N[C@@H](C(=O)N[C@H](CCN)C(=O)NCC(=O)N[C@H](CO)C(=O)N[C@H](Cc1c[nH]c2ccccc12)C(=O)N[C@@H](CO)C(=O)N[C@@H](CCN)C(=O)N[C@H](CCN)C(=O)N[C@@H](CO)C(=O)N[C@@H](CCC(=O)O)C(=O)N[C@H](C(=O)N[C@@H](C(=O)N[C@@H](C)C(=O)O)[C@@H](C)CC)C(C)C)C(C)C [Oct-Ser9] (Octanoyl-[dV][dDab]G[dS][dW]S[Dab][dDab]SEV[d(aIle)]A-OH) ?
Return: 8

Enquiry: Likewise for CCCCCCCC(=O)N[C@@H](C(=O)N[C@H](CCN)C(=O)NCC(=O)N[C@H](CO)C(=O)N[C@H](Cc1c[nH]c2ccccc12)C(=O)N[C@@H](CO)C(=O)N[C@@H](CCN)C(=O)N[C@H](CCN)C(=O)N[C@@H](Cc1c[nH]c2ccccc12)C(=O)N[C@@H](CCC(=O)O)C(=O)N[C@H](C(=O)N[C@@H](C(=O)N[C@@H](C)C(=O)O)[C@@H](C)CC)C(C)C)C(C)C [Oct-TriA5] (Octanoyl-[dV][dDab]G[dS][dW]S[Dab][dDab]WEV[d(aIle)]A-OH) ?
Return: 4
